PROTOCOL NOTES: PK in rat
Assay type: in vivo
SETTINGS: rat, plasma; SD male rats, PO: 10 mg/kg
Procedure: The compounds were dissolved into 10% DMSO, 30% PEG400, and 60% saline to obtain a solution. SD male rats were given the compound orally and intravenously. Then plasma samples were collected at 0 hour (pre-dose), 0.25, 0.5, 1, 2, 4, 7, 24 hours post-dose. Plasma drug concentration was detected by LC-MS/MS. Pharmacokinetic parameters were calculated using WinNonlin's software with non-compartmental model.
TEST READOUT: AUC(0-t) (µg·h/mL)

Cc1cc(Nc2nc(C[C@@]3(C(=O)O)CCN(Cc4cccc(Cl)c4F)[C@H](C)C3)ccc2F)[nH]n1    179
Cc1cc(Nc2cc(C)c(F)c(C[C@@]3(C(=O)O)CCN(Cc4c(F)ccc(Cl)c4F)[C@H](C)C3)n2)n[nH]1    173
Cc1cc(Nc2ccc(F)c(C[C@@]3(C(=O)O)CCN(Cc4c(F)ccc(Cl)c4F)[C@H](C)C3)n2)n[nH]1    215
Cc1cc(Nc2cc(C)c(F)c(C[C@@]3(C(=O)O)CCN(Cc4cccc(Cl)c4F)[C@H](C)C3)n2)n[nH]1    202
Cc1cc(Nc2nc(C[C@@]3(C(=O)O)CCN(Cc4cccc(Cl)c4F)[C@H](C)C3)cc(C)c2F)n[nH]1    236

* * *

PROTOCOL NOTES: PK in rat
Format: in vivo
SETTINGS: rat, plasma; SD male rats, IV: 3 mg/kg
TEST READOUT: clearance (mL/min/kg)

(P) Cc1cc(Nc2nc(C[C@@]3(C(=O)O)CCN(Cc4cccc(Cl)c4F)[C@H](C)C3)ccc2F)[nH]n1 [Example 5]
(Q) Cc1cc(Nc2cc(C)c(F)c(C[C@@]3(C(=O)O)CCN(Cc4c(F)ccc(Cl)c4F)[C@H](C)C3)n2)n[nH]1 [Example 50]
Ask: Kindly identify the item with the lower clearance figure among these two: P and Q Use the label to indicate which entry you chose.
Reply: Q

(P) Cc1cc(Nc2cc(C)c(F)c(C[C@@]3(C(=O)O)CCN(Cc4cccc(Cl)c4F)[C@H](C)C3)n2)n[nH]1 [Example 49]
(Q) Cc1cc(Nc2ccc(F)c(C[C@@]3(C(=O)O)CCN(Cc4c(F)ccc(Cl)c4F)[C@H](C)C3)n2)n[nH]1 [Example 6]
Ask: Kindly identify the item with the lower clearance figure among these two: P and Q Use the label to indicate which entry you chose.
Reply: Q
(Q: 0.67 mL/min/kg, P: 1.05 mL/min/kg)

* * *

PROTOCOL NOTES: PK in rat
Format: in vivo
SETTINGS: rat, plasma; SD male rats, IV: 3 mg/kg; read-out: Vss
TEST READOUT: Vd (L/kg)

Some compounds with recorded Vd:
Cc1cc(Nc2ccc(F)c(C[C@@]3(C(=O)O)CCN(Cc4c(F)ccc(Cl)c4F)[C@H](C)C3)n2)n[nH]1    0.18
Cc1cc(Nc2nc(C[C@@]3(C(=O)O)CCN(Cc4cccc(Cl)c4F)[C@H](C)C3)cc(C)c2F)n[nH]1    0.22
Cc1cc(Nc2cc(C)c(F)c(C[C@@]3(C(=O)O)CCN(Cc4c(F)ccc(Cl)c4F)[C@H](C)C3)n2)n[nH]1    0.26

(1) Cc1cc(Nc2cc(C)c(F)c(C[C@@]3(C(=O)O)CCN(Cc4cccc(Cl)c4F)[C@H](C)C3)n2)n[nH]1
(2) Cc1cc(Nc2nc(C[C@@]3(C(=O)O)CCN(Cc4cccc(Cl)c4F)[C@H](C)C3)ccc2F)[nH]n1
Ask: Kindly identify the item with the lower Vd figure among these two: 1 and 2 Use the label to indicate which entry you chose.
Reply: 1
(1: 0.22 L/kg, 2: 0.56 L/kg)

* * *

SYSTEM NAME: Aurora B (Homo sapiens (Human), UniProt Q96GD4)
Sequence (Q96GD4 whole entry): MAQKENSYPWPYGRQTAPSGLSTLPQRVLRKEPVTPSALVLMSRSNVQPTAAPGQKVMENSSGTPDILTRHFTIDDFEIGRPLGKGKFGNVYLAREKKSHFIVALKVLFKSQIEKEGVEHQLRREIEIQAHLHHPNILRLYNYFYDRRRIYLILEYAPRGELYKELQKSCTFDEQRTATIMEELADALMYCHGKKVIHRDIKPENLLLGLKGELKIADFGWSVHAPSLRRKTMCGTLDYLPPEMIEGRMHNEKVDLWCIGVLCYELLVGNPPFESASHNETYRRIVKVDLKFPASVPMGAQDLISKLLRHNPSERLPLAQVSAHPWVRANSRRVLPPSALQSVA
PROTOCOL NOTES: Aurora B kinase assay (mobility shift assay)
Assay type: biochemical
SETTINGS: ratio of Aurora B IC50 to Aurora A IC50
Procedure: Example A: Evaluation of Aurora a and Aurora B Inhibitory Effect—Kinase Assay The inhibitory activities of a test compound against Aurora A and Aurora B were measured according to the following method. […] The log of concentration is on the X axis, and the percentage inhibition is on the Y axis. Fit the Quantitative effect curves with log (inhibitor) vs. response—Variable slope in GraphPad Prism5 obtain IC50 values. […]
TEST READOUT: IC50 Ratio Aur B/Aur A

Some compounds with recorded IC50 Ratio Aur B/Aur A:
Cc1cc(Nc2nc(C[C@@]3(C(=O)O)CCN(Cc4cccc(Cl)c4F)[C@H](C)C3)cc(C#N)c2F)n[nH]1    1479
Cc1cc(Nc2nc(C[C@@]3(C(=O)O)CCN(Cc4cccc(Cl)c4F)[C@H](C)C3)cc(Cl)c2F)n[nH]1    779
Cc1cc(Nc2ccc(F)c(C[C@@]3(C(=O)O)CCN(Cc4c(F)cccc4F)[C@H](C)C3)n2)n[nH]1    2560

(A) Cc1cc(Nc2cc(C)c(F)c(CC3(C(=O)O)CCN(Cc4cccc(Cl)c4Cl)CC3)n2)n[nH]1
(B) CC[C@@H]1C[C@](Cc2nc(Nc3cc(C)[nH]n3)ccc2F)(C(=O)O)CCN1Cc1cccc(Cl)c1F
Ask: Kindly identify the item with the lower IC50 Ratio Aur B/Aur A figure among these two: A and B Use the label to indicate which entry you chose.
Reply: B

* * *

PROTOCOL NOTES: PK in rat
Type: in vivo
SETTINGS: rat, plasma; SD male rats, PO: 10 mg/kg
Procedure: The compounds were dissolved into 10% DMSO, 30% PEG400, and 60% saline to obtain a solution. SD male rats were given the compound orally and intravenously. Then plasma samples were collected at 0 hour (pre-dose), 0.25, 0.5, 1, 2, 4, 7, 24 hours post-dose. Plasma drug concentration was detected by LC-MS/MS. Pharmacokinetic parameters were calculated using WinNonlin's software with non-compartmental model.
TEST READOUT: half-life (h)

Cc1cc(Nc2cc(C)c(F)c(C[C@@]3(C(=O)O)CCN(Cc4c(F)ccc(Cl)c4F)[C@H](C)C3)n2)n[nH]1 [Example 50]    3.62

(1) Cc1cc(Nc2cc(C)c(F)c(C[C@@]3(C(=O)O)CCN(Cc4cccc(Cl)c4F)[C@H](C)C3)n2)n[nH]1 [Example 49]
(2) Cc1cc(Nc2nc(C[C@@]3(C(=O)O)CCN(Cc4cccc(Cl)c4F)[C@H](C)C3)ccc2F)[nH]n1 [Example 5]
(3) Cc1cc(Nc2ccc(F)c(C[C@@]3(C(=O)O)CCN(Cc4c(F)ccc(Cl)c4F)[C@H](C)C3)n2)n[nH]1 [Example 6]
Ask: Returns the items ordered by half-life, from maximum to minimum. Output the labels ranked as instructed.
Reply: 3, 2, 1

* * *

SYSTEM NAME: Aurora A (Homo sapiens (Human))
Sequence (O14965 whole entry): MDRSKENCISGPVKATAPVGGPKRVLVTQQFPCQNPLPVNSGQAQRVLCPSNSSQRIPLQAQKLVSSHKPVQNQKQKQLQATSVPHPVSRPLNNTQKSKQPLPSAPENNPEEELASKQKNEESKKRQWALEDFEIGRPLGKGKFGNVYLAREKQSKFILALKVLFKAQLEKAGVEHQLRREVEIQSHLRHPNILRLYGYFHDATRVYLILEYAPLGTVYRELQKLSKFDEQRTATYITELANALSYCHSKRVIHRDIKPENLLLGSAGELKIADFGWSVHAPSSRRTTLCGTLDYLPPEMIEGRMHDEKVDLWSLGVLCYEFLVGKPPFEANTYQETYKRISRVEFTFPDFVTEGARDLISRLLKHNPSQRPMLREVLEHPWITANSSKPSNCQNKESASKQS
PROTOCOL NOTES: Aurora A kinase assay (mobility shift assay)
Assay type: biochemical
TEST READOUT: IC50 (nM)

Cc1cc(Nc2ccc(F)c(C[C@@]3(C(=O)O)CCN(Cc4cccc(F)c4F)[C@H](C)C3)n2)n[nH]1 [Example 15]    0.55
CCc1cc(Nc2cc(C)[nH]n2)nc(CC2(C(=O)O)CCN(Cc3cccc(Cl)c3F)CC2)c1F [Example 66]    0.57
Cc1cc(Nc2cc(S(C)(=O)=O)c(F)c(C[C@@]3(C(=O)O)CCN(Cc4cccc(Cl)c4F)[C@H](C)C3)n2)n[nH]1 [Example 81]    0.77
Cc1[nH]nc(Nc2ccc(F)c(CC3(C(=O)O)CCN(Cc4cccc(Cl)c4F)C(C)C3)n2)c1C (stereo not shown) [Example 102]    0.93
Cc1cc(Nc2ccc(F)c(C[C@@]3(C(=O)O)CCN(S(=O)(=O)c4ccccc4C(F)(F)F)[C@H](C)C3)n2)n[nH]1 [Example 39]    0.57
Cc1cc(Nc2cc(C)c(F)c(C[C@@]3(C(=O)O)CCN(Cc4cccc(Cl)c4F)[C@H](C)C3)n2)n[nH]1 [Example 49]    0.7
Cc1cc(Nc2nc(CC3(C(=O)O)CCN(Cc4cccc(Cl)c4F)CC3)c(F)cc2F)n[nH]1 [Example 92]    0.74
